The measured values listed here are drawn from patent US20100305174A1.

- Test system: TNF-α
- PROTOCOL NOTES: TNF-α inhibition in LPS-challenged human PBMC
- Type: cell-based
- EXPERIMENTAL SETUP: Homo sapiens, PBMC; 1 μM, LPS 100 ng/mL, 20 hours; read-out: % Inhibition TNF alpha
RECORDED ENDPOINT: inhibition at 1 µM
A complete answer gives the number followed by the unit.

// query Could you tell me which inhibition at 1 µM is on file for CN1C(=O)OCC1Cc1ccc(Oc2ccc(/C=C3\C(=O)Nc4ccccc43)cc2C(F)(F)F)cc1 (stereo not shown) ?
// result 15.9%

// query Could you tell me which inhibition at 1 µM is on file for CN1C(=O)OCC1Cc1ccc(Oc2ccc(/C=C3\C(=O)Nc4ccccc43)cc2)cc1 (stereo not shown) ?
// result 8.77%

// query Could you tell me which inhibition at 1 µM is on file for CN1C(=O)OCC1Cc1ccc(Oc2ccc(/C=C3\C(=O)Nc4ccccc43)c(Cl)c2)cc1 (stereo not shown) ?
// result 6.6%

// query Could you tell me which inhibition at 1 µM is on file for COc1cc(CC2C(=O)Nc3ccccc32)ccc1Oc1ccc(CC2COC(=O)N2C)cc1 (stereo not shown) ?
// result 20.9%
